Below are Ki values recorded for C-X-C chemokine receptor type 1 (Homo sapiens, UniProt P25024).
Endpoint: Ki (µM)

Would you please look over these solved cases?
Ki reading for CC(C)[C@@H](Nc1n[s+]([O-])nc1Nc1cccc(C(=O)N(C)C)c1O)c1cccc(F)c1 (stereo partly specified) : 4.01

Ki reading for CN(C)C(=O)c1cccc(N=C2NS(=O)(=O)N=C2N[C@@H](c2ccc3c(c2)OCCO3)C(C)(C)C)c1O : 2

Ki reading for CN(C)C(=O)c1cccc(Nc2n[s+]([O-])nc2N[C@@H](c2ccco2)C(C)(C)C)c1O (stereo partly specified) : 0.021

Ki reading for CN(C)C(=O)c1cccc(Nc2n[s+]([O-])nc2N[C@@H](c2ccco2)C2(C)CC2)c1O (stereo partly specified) : 0.375

Ki reading for Cc1ccc([C@H](NC2=NS(=O)(=O)N=C2Nc2cccc(C(=O)N(C)C)c2O)C2(C)CC2)o1 : 1.1

Ki reading for CN(C)C(=O)c1cccc(Nc2n[s+]([O-])nc2NCc2ccc3c(c2)OCO3)c1O (stereo unspecified) : 10

Ki reading for Cc1ccc([C@H](Nc2n[s+]([O-])nc2Nc2cccc(C(=O)N(C)C)c2O)C(C)(C)C)o1 (stereo partly specified) : 0.038

Ki reading for CC[C@@H](Nc1n[s+]([O-])nc1Nc1cccc(C(=O)N(C)C)c1O)c1cc(C(C)C)co1 (stereo partly specified) : 0.061

A: CC[C@@H](NC1=NS(=O)(=O)N=C1Nc1cccc(C(=O)N(C)C)c1O)c1ccc(C)o1
B: C[C@H](Nc1n[s+]([O-])nc1Nc1cccc(C(=O)N(C)C)c1O)C(C)(C)C (stereo partly specified)
C: CN(C)C(=O)c1cccc(Nc2n[s+]([O-])nc2N[C@@H](c2ccccc2)C(C)(C)C)c1O (stereo partly specified)
[in] Hello, I need these entries ordered by Ki, highest reading first. Thanks! Field: ranking. Enter the labels in the order requested.
[out] A, B, C
